Origin of the recorded values: patent US20220025021A1

TESTED_ON: HIV-1 pseudovirus AC10.0.29 (HIV-1)
METHOD_NOTES: cell-based or functional assay
Items are presented alongside their recorded IC50 (neutralization in TZM.bl cells).
MEASURED_PARAMETER: IC50 (neutralization in TZM.bl cells) (µg/mL)

# BINDER, MEASURED_PARAMETER, RESULT_UNIT, VALUE_MEASURED
measured = [
    ("MS-78 (antibody, V domains shown) VH: QVQLVQSGPEVRKPGTSVKVSCKAPGNTLKTYDLHWVRSVPGQGLEWMGWISHEGDKKVIVERFKAKVTIDWDRSTNTAYLQLSGLTSGDTAVYYCAKGSKHRLRDYALYDDDGALNWAVDVDYLSNLEFWGQGTAVTVSS VL: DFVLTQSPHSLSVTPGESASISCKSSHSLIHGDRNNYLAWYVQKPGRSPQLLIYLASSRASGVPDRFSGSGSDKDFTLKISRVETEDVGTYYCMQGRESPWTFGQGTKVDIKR", "IC50 (neutralization in TZM.bl cells)", "µg/mL", 0.044),
    ("MS-70 (antibody, V domains shown) VH: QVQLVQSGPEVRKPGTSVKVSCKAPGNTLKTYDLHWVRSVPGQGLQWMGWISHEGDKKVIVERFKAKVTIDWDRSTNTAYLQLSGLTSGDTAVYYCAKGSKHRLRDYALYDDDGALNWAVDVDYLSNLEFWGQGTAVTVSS VL: DFVLTQSPHSLSVTPGESASISCKSSHSLIHGDRNNYLAWYVQKPGQSPQLLIYLASSRASGVPDRFSGSGSDKDFTLKISRVETEDVGTYYCMQGRESPWTFGQGTKVDIKR", "IC50 (neutralization in TZM.bl cells)", "µg/mL", 0.053),
    ("MS-77 (antibody, V domains shown) VH: QVQLVQSGPEVRKPGTSVKVSCKAPGNTFKTYDLHWVRSVPGQGLQWMGWISHEGDKKVIVERFKAKVTIDWDRSTNTAYLQLSGLTSGDTAVYYCAKGSKHRLRDYALYDDDGALNWAVDVDYLSNLEFWGQGTAVTVSS VL: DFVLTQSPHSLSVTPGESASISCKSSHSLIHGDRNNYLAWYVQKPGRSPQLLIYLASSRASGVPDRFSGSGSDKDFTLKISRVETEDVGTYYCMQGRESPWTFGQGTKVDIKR", "IC50 (neutralization in TZM.bl cells)", "µg/mL", 0.036),
]
